# TARGET OF ASSAY: T1, Sul7s K13A (Sulfolobus islandicus Rey15A, UniProt F0NBY5 1-59, K13A)
# T1 sequence: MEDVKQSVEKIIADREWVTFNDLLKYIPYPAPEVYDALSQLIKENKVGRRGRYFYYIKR
# ASSAY NOTES: BLI; BLI: 50 mM Tris-Cl pH 7.5, 100 mM NaCl, 1 mM EDTA, 0.02% Tween-20, 30 C; NMR: 20 mM potassium phosphate pH 7.0, 30 mM NaCl, 0.02% NaN3, 298 K
# EXPERIMENTAL PARAMETERS: protein: recombinant; tags: untagged; label: 5'-biotin
READOUT NAME: Kd (µM)

BINDER	READOUT NAME	TEST RESULT
TTTCTACCCTTTGGTGCTAATGCCCATACT (ssDNA) [S30 (S30-F)]	Kd	30.4
